# System: galium (catchweed bedstraw, Galium aparine)
# MEASUREMENT DESCRIPTION: Test C postemergence, visual plant response rating
# Type: in vivo
# MEASUREMENT CONTEXT: Test C, postemergence, 1000 g ai/ha
Each entry below carries its recorded Galium plant response rating (0 to 100 scale).
ASSAY METRIC: Galium plant response rating (0 to 100 scale)

# COMPOUND, TARGET ENTITY, TEST RESULT
records = [
    ("CCO/N=C(\\c1c(O)cnn(C)c1=O)c1cccc2ccccc12 [Compound 224]", "galium (catchweed bedstraw, Galium aparine)", 90),
    ("CO/N=C(/c1c(O)cnn(C)c1=O)c1cccc2ccccc12 [Compound 237]", "galium (catchweed bedstraw, Galium aparine)", 100),
    ("CO/N=C(\\c1c(O)cnn(C)c1=O)c1cccc2ccccc12 [Compound 238]", "galium (catchweed bedstraw, Galium aparine)", 90),
    ("C#CCO/N=C(/c1c(O)cnn(C)c1=O)c1cccc2ccccc12 [Compound 221]", "galium (catchweed bedstraw, Galium aparine)", 100),
    ("CCO/N=C(/c1c(O)cnn(C)c1=O)c1cccc2ccccc12 [Compound 225]", "galium (catchweed bedstraw, Galium aparine)", 90),
]
